- System: T1, human insulin-like growth factor-1 receptor (HIGF-1R) (human, UniProt P08069 31-1367)
- T1 construct: Detergent-solubilised receptor purified on WGA-agarose; also called HIGFIR
- T1 sequence (P08069 31-1367 limits assumed): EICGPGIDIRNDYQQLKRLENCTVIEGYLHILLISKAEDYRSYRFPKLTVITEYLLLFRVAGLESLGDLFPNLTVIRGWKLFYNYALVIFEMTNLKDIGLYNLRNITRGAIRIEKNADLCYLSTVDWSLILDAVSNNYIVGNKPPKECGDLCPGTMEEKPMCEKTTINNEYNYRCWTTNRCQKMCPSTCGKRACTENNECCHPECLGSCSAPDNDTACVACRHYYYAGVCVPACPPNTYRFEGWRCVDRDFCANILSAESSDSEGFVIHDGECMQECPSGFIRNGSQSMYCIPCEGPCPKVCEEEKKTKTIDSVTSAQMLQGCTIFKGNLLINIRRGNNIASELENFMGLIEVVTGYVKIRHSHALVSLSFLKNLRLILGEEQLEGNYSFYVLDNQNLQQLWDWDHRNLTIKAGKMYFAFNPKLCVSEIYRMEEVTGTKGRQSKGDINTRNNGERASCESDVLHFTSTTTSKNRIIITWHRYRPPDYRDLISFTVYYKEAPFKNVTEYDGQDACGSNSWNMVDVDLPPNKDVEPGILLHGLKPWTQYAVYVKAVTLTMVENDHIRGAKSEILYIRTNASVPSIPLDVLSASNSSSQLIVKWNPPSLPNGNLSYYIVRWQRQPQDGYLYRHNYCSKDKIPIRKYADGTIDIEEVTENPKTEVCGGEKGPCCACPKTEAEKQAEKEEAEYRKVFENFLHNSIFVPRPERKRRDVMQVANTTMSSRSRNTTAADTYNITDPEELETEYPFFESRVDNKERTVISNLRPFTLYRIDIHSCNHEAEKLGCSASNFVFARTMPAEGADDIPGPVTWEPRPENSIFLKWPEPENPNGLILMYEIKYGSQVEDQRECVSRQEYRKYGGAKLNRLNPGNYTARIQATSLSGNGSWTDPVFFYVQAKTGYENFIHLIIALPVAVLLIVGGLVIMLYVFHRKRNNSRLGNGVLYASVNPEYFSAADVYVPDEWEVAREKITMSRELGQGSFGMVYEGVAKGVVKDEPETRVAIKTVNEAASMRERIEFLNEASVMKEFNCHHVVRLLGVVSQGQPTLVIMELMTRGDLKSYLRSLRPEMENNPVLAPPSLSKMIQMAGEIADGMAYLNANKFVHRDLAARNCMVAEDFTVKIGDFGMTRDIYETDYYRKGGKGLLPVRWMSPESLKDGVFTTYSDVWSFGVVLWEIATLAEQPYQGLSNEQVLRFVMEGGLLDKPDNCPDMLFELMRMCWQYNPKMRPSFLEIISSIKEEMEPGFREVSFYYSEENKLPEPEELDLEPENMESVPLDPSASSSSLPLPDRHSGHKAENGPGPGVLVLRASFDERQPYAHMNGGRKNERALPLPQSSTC
- Experiment Description: 125I-IGF-1 displacement, PEG-assay
Endpoint Label: Kd (µM)

[[record]]
binder = "ETFYKCLASVLTGSTQTKRRPWEGCREE [F229]"
endpoint_label = "Kd"
readout_number = 37

[[record]]
binder = "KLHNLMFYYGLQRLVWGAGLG [F159]"
endpoint_label = "Kd"
readout_number = 5

[[record]]
binder = "ESFYSCLESLVNGPAEKSRGQWDGCRE [F215]"
endpoint_label = "Kd"
readout_number = 82

[[record]]
binder = "EDHRLCGTDEYLMQDLFVRGLCRLIWE [F164]"
endpoint_label = "Kd"
readout_number = 4

[[record]]
binder = "EGRVDDAFYEWFERQLGE [F213]"
endpoint_label = "Kd"
readout_number = 0.8

[[record]]
binder = "ESFYSCLASLVAGTPWPKGGSWERCREE [F230]"
endpoint_label = "Kd"
readout_number = 20

[[record]]
binder = "SFYSCLESLVNGPAEKSRGQWDGCRK [F250]"
endpoint_label = "Kd"
readout_number = 42

[[record]]
binder = "TFYSCLASLLTGPREQNRGAWERCRR [F142]"
endpoint_label = "Kd"
readout_number = 0.04

[[record]]
binder = "XGSLDESFYDWFERQLGKK (N-terminal Lig (lysine with a 2-aminohydroxyacetyl group on the epsilon amino group)) [F119]"
endpoint_label = "Kd"
readout_number = 1

[[record]]
binder = "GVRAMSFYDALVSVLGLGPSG [F157]"
endpoint_label = "Kd"
readout_number = 2

[[record]]
binder = "ELSFACLLSQLSGVVLPDCLLGEDE [F201]"
endpoint_label = "Kd"
readout_number = 43

[[record]]
binder = "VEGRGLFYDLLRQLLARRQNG [F158]"
endpoint_label = "Kd"
readout_number = 0.9

[[record]]
binder = "EEGVDEVRAWLWCQISGLGCESEEX (C-terminal Lig (lysine with a 2-aminohydroxyacetyl group on the epsilon amino group)) [F191]"
endpoint_label = "Kd"
readout_number = 54

[[record]]
binder = "DDDKGSLDESFYDWFERQLGTFYSCLASLLTGTPQPNRGPWERCR [F110]"
endpoint_label = "Kd"
readout_number = 1

[[record]]
binder = "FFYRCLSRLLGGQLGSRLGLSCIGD [F139]"
endpoint_label = "Kd"
readout_number = 8

[[record]]
binder = "EWLEQERAWIWCEIQGSGCRAE [F216]"
endpoint_label = "Kd"
readout_number = 10

